# target-entity: T1, MMP-26 (human)
# T1 sequence: ASDF
# assay-comment: cell-based or functional assay
Listed below: % Inhibition of JEG-3 cell invasion, 5 µg/ml (first test) values for each entry.
Only the number, expressed in %, is required.

C08 (antibody, human IgG4, V domains shown) VH: EVQLLESGGGLVQPGGSLRLSCAASGFTFSYYEMMWVRQAPGKGLEWVSSISPSGGPTMYADSVKGRFTISRDNSKNTLYLQMNSLRAEDTGVYYCARKMGRVGYCSSTSCYRDDYYGMDVWGQGTTVTVSS VL: DIQMTQSPPSLSALVGDRVTITCRASQSISRYVNWYQQKPGKAPKVLIYAASIVENGVPSRFSGSGSGTDFSLTISSLQPEDFATYYCQQTYSTPLTFGGGTKLAIKR = 45

GET /values?readout=% Inhibition of JEG-3 cell invasion, 5 µg/ml (first test)&item= D04 (antibody, human IgG4, V domains shown) VH: EVQLLESGGGLVQPGGSLRLSCAASGFTFSDYQMMWVRQAPGKGLEWVSRISPSGGMTRYADSVKGRFTISRDNSKNTLYLPMNSLRAEDTAVYYCARSGPYYFDYWGQGTLVTVSS VL: DIQMTQSPSSLSASVGDRVAITCRASQSIDTYLNWYQQKPGKAPKLLIYAASKLEDGVPSRFSGSGTGTDFTLTIRSLQPEDFASYFCQQSYSSPGITFGPGTKVEIKR
38

// provenance: patent US7514534
